// note: IC50 values for Coagulation factor X (Homo sapiens) were reported in different studies

Which IC50 reading was recorded for the molecule CC(C)Nc1ncc(-c2cc(N)cc(NS(=O)(=O)c3ccc(F)cc3)c2)n(CC(=O)NCc2ccc(C(=N)N)cc2)c1=O ? > 30 µM

Next record, please: O=C1CN(S(=O)(=O)c2ccc3cc(Cl)ccc3c2)CC2OC3(CCN(c4ccncn4)CC3)CN12 (stereo not shown) 0.0054 µM

Next record, please: CC(=O)NCC12CN(S(=O)(=O)c3cc4cc(Cl)ccc4[nH]3)CC(=O)N1CC1(CCN(C(C)=O)CC1)N2C (single isomer, unassigned) 0.0056 µM

Next record, please: CC(C)Nc1ncc(-c2cc(N)cc(NC(=O)OC(C)(C)C)c2)n(CC(=O)NCc2ccc(C(=N)N)c(O)c2)c1=O > 30 µM

Next record, please: CC(C)Nc1ncc(-c2cc(N)cc(NS(=O)(=O)c3cccs3)c2)n(CC(=O)NCc2ccc(C(=N)N)cc2)c1=O > 30 µM

Next record, please: CC(C)Nc1ncc(-c2cc(N)cc(C(=O)NCCCc3ccccc3)c2)n(CC(=O)NCc2ccc(C(=N)N)cc2)c1=O > 30 µM

Next record, please: CC[C@H](C)NC(=O)c1cc(N)cc(-c2cnc(NC(C)C)c(=O)n2CC(=O)NCc2c(F)c(O)c(C(=N)N)c(F)c2F)c1.Cl.Cl > 30 µM

---

pIC50: −log10 of the molar value.
// note: pIC50 values for Coagulation factor X (Homo sapiens) were reported in different studies
true means recorded pIC50 is 6 or above; false means it is below 6.

# bool: pIC50 of O=C(Nc1ccc(F)cc1)c1nccnc1C(=O)Nc1ccc(N2CCOCC2=O)cc1 >= 6 true

Next record, please: CC(C)CN(Cc1cccc(C(=N)N)c1)C(=O)C(=O)Nc1ccc(-c2ccccc2S(N)(=O)=O)cc1 true

Next record, please: COC(=O)Cc1cc(N)c(OC)c(-c2cnc(NC(C)C)c(=O)n2CC(=O)NCc2ccc(C(=N)N)cc2)c1 false

Next record, please: Cc1ncc(CNC(=O)c2ccc(-c3ccccc3S(N)(=O)=O)cc2)c(CO)c1O false

Next record, please: CC(C)(C)OC(=O)C(Cc1cccc(C(=N)N)c1)N1CCc2cc(OC3CCN(C(=N)N)CC3)ccc2C1=O (stereo not shown) true

Next record, please: N=C1O[C@@H](CNC(=O)c2ccc(Cl)s2)CN1c1ccc(N2CCOCC2=O)cc1 true

Next record, please: Nc1nccc2cc(CCNC(=O)c3csc([C@@H]4C[C@@H](N)CN4C(=O)c4cn5cc(Cl)ccc5n4)n3)ccc12 false

Next record, please: COC(=O)c1cc(N)cc(-c2c(Br)nc(NC(C)C)c(=O)n2CC(=O)NCc2ccc(C(=N)N)cc2)c1 false

Next record, please: COCC12CN(S(=O)(=O)c3cc4cc(Cl)ccc4[nH]3)CC(=O)N1CC1(CCN(C(C)=O)CC1)O2 (single isomer, unassigned; (-)) true

Next record, please: Cc1c(O)cccc1NC(=O)Cn1cc(C(=N)N)c2ccccc21 false

Next record, please: N=C(N)c1ccc(CNC(=O)Cn2c(-c3cccc(N)c3)c(Cl)nc(NC3CC4CCC3C4)c2=O)cc1 (stereo not shown) false

Next record, please: CC(C)COC(=O)NC(CC(=O)O)C(=O)N1CCCC1C(=O)NC(C=O)CCCN=C(N)N (stereo not shown) false

Next record, please: CC(C)Nc1ncc(-c2cc(N)cc(C(=O)NC(C)(C)CCO)c2)n(CC(=O)NCc2ccc(C(=N)N)cc2)c1=O false

Next record, please: CC(C)Nc1ncc(-c2cc(N)cc(NCc3ccsc3)c2)n(CC(=O)NCc2ccc(C(=N)N)cc2)c1=O false

Next record, please: N=C(N)N1CCC(CNC(=O)CN2CCCC[C@H](NS(=O)(=O)c3ccccc3)C2=O)CC1 false

Next record, please: CNC(=O)[C@H](CCCCNC(=N)N)NC(=O)c1csc([C@@H]2C[C@@H](N)CN2C(=O)c2cn3cc(Cl)ccc3n2)n1 false

Next record, please: CC(C)Nc1ccc(-c2cc(N)cc(N)c2)c(CC(=O)NCc2ccc(C(=N)N)cc2)[n+]1[O-] false

Next record, please: CC(C)CS(=O)(=O)c1cc(N)cc(-c2cnc(NC(C)C)c(=O)n2CC(=O)NCc2ccc(C(=N)N)cc2)c1 false

---

// note: pIC50 values for Coagulation factor X (Homo sapiens) were reported in different studies
Keep in mind that pIC50 stands for -log10 of concentration in molar terms.

Which pIC50 reading was recorded for the molecule O=C(NCCCCCNC(=O)c1cccc(NS(=O)(=O)c2ccc3ccccc3c2)c1)c1cccc(NS(=O)(=O)c2ccc3ccccc3c2)c1 ? 5.52

Next record, please: CC(=N)N1CCC(Oc2ccc3c(c2)/C(=C/c2ccc(F)cc2)C(=O)N3Cc2ccc3ccc(C(=N)N)cc3c2)CC1 8.23

Next record, please: N=C(N)c1cc2ccc(OC(=O)c3ccsc3)cc2s1 8.22

---

// note: pIC50 values for Coagulation factor X (Homo sapiens, UniProt P00742) were reported in different studies
pIC50: −log10 of the molar value.

Which pIC50 reading was recorded for the compound CC(C)Nc1ncc(-c2cc(N)cc(C(=O)NC3CCCC3)c2)n(CC(=O)NCc2ccc(C(=N)N)cc2)c1=O ? > 4.52

Next record, please: CC(C)CC(C)Nc1nc(Cl)c(-c2cccc(N)c2)n(CC(=O)NCc2ccc(C(=N)N)cc2)c1=O (centres unmarked) < 4.52

Next record, please: CC(C)Nc1ncc(-c2cc(N)cc(N)c2)n(CC(=O)NCc2ccc(C(=N)N)c(O)c2)c1=O < 4.52

Next record, please: CC(C)Nc1ncc(-c2cc(N)cc(C(=O)NCc3ccccc3)c2)n(CC(=O)NCc2ccc(C(=N)N)cc2)c1=O < 4.52

Next record, please: CC[C@H](C)NC(=O)c1cc(N)cc(-c2cnc(NC(C)C)c(=O)n2CC(=O)NCc2c(O)cc(C(=N)N)cc2OCc2ccccc2)c1 < 4.52

Next record, please: Nc1ccc(CCNC(=O)Cn2c(=O)c(NS(=O)(=O)Cc3ccccc3)cc3ccccc32)cc1 < 4.52

Next record, please: CNC(=O)c1cc(N)cc(-c2cnc(NC(C)C)c(=O)n2CC(=O)NCc2ccc(C(=N)N)cc2)c1 < 4.52

Next record, please: COc1ccc(OC)c(S(=O)(=O)N[C@H]2CCCCN(CC(=O)NCC3CCN(C(=N)N)CC3)C2=O)c1 ≤ 5.60

---

// note: IC50 values for Coagulation factor X (Homo sapiens) were reported in different studies

Which IC50 reading was recorded for the compound CCCCCCCCCCCCCCCCn1c2c(c(=N)c3c1CCC3)CCC2 ? > 200 µM

Next record, please: O=C(Cc1c(F)ccc(NS(=O)(=O)Cc2ccccc2)c1F)NCc1ccncc1 > 30 µM

Next record, please: CC(C)Nc1ncc(-c2cc(N)cc(NC(=O)C(C)C)c2)n(CC(=O)NCc2ccc(C(=N)N)cc2)c1=O > 30 µM

---

// note: IC50 values for Coagulation factor X (Homo sapiens, UniProt P00742) were reported in different studies

Which IC50 reading was recorded for the molecule N=C(N)c1cc2ccc(OC(=O)c3ccccc3)cc2s1 ? 23 nM

Next record, please: CCCC(NC(=O)Nc1ccc(Cl)cc1)C(=O)NCC1CCN(c2ccncc2)CC1 (centres unmarked) 580 nM

Next record, please: O=C(Nc1ccc(C(=O)Nc2ccc(Cl)cc2)c(O)c1)c1ccc(-c2nc3cc(Cl)c(Cl)cc3[nH]2)cc1 84800 nM

Next record, please: O=C(c1ccc(S(=O)(=O)c2ccc3cc(Cl)ccc3c2)cc1)N1CCN(c2ccncc2)CC1 13 nM

Next record, please: C[C@@H]1CCC[C@H](C)N1CCCCCN1C(=O)C(c2cc(C(=N)N)ccc2O)Oc2ccccc21 (some centres unmarked) < 1 nM

Next record, please: CCCC(Oc1cccc(C(=N)N)c1)C(=O)Nc1ccc(N2CCCC2=O)cc1 (centres unmarked) 130 nM

Next record, please: CN(C)CCNCC(O)CN1CCn2c3c(c4cc(C5CCCCC5)ccc42)CCCC31 (centres unmarked) > 200000 nM

Next record, please: CCC(=C(c1ccc(OC)cc1)c1ccc(OC)cc1)c1cn(CC(O)CN2CCCC2)c2ccccc12 (centres unmarked) > 200000 nM

Next record, please: CC(C)Nc1ncc(-c2cc(N)cc(C(=O)NC(C)(C)c3ccccc3)c2)n(CC(=O)NCc2ccc(C(=N)N)cc2)c1=O > 30000 nM

Next record, please: COCC12CN(S(=O)(=O)c3ccc4nc(Cl)ccc4c3)CC(=O)N1CC1(CCN(c3ccncc3)CC1)O2 (centres unmarked) 1.8 nM

Next record, please: CS(=O)(=O)c1ccccc1-c1ccc(NC(=O)NN(c2ccccc2)c2cccc(C(=N)N)c2)c(F)c1 28 nM

Next record, please: CC[C@@H](C)NC(=O)c1cc(N)cc(-c2cnc(NC(C)C)c(=O)n2CC(=O)NCc2c(O)cc(C(=N)N)cc2OC)c1 > 30000 nM

Next record, please: Cn1cc(Cl)c2c(F)c(C(=O)N3C[C@@H](C4CCN(S(C)(=O)=O)CC4)C[C@H]3C(=O)Nc3ccc(C(=O)O)cc3)ccc21 > 100000 nM

Next record, please: CCCN(Cc1cccc(C(=N)N)c1)C(=O)Nc1ccc(-c2ccccc2S(N)(=O)=O)cc1 140 nM

Next record, please: N=C(N)c1ccc2ccc(CN3C(=O)COc4cc(NS(=O)(=O)c5ccc6cc(Br)ccc6c5)ccc43)cc2c1 268000 nM

Next record, please: CN1CCC(Oc2ccc3c(ccc(=O)n3Cc3ccc4ccc(C(=N)N)cc4c3)c2)CC1 209 nM

Next record, please: COC(=O)c1ccc(Br)cc1-n1cc(C(=N)N)c2ccccc21 35100 nM

Next record, please: COc1ccc(S(=O)(=O)Nc2cc(N)cc(-c3cnc(NC(C)C)c(=O)n3CC(=O)NCc3ccc(C(=N)N)cc3)c2)cc1 > 30000 nM

Next record, please: C[C@@H]1CCC[C@H](C)N1CCCCCn1c(=O)c(-c2cc(C(=N)N)ccc2O)nc2ccccc21 9 nM

Next record, please: CC(=N)N1CCC(Oc2ccc(N(Cc3nc4cc(C(=N)N)ccc4n3CC(=O)NC3CCCCC3)C(=O)c3ccc(C(=O)O)cc3)cc2)CC1 10 nM

Next record, please: NCc1cccc(NC(C(=O)Nc2ccc(N3CCCC3=NO)c(Cl)c2)c2ccccc2)c1 (racemic) 220 nM

Next record, please: CN1CCN(CC(=O)N2CCn3c4c(c5cc(C6CCCCC6)ccc53)CCCC42)CC1 (centres unmarked) > 200000 nM

Next record, please: Cc1ccc(NS(=O)(=O)Cc2ccccc2)c(=O)n1CC(=O)N[C@@H](CCCNC(=N)N)C(=O)c1nccs1 < 4000 nM

Next record, please: CCCc1ccc(C(=O)Nc2cc(N)cc(-c3cnc(NC(C)C)c(=O)n3CC(=O)NCc3ccc(C(=N)N)cc3)c2)cc1 > 30000 nM

Next record, please: CC(C)(NC(=O)c1ccc(Cl)s1)C(=O)Nc1ccc(Cl)cc1 > 10000 nM

Next record, please: CC[C@@H](C)NC(=O)c1cc(N)cc(-c2cnc(NC(C)(C)C)c(=O)n2CC(=O)NCc2ccc(C(=N)N)cc2)c1 > 30000 nM
